organism: Homo sapiens; assay: Inhibition of MDH (unknown origin) using oxaloacetic acid as substrate preincubated with compound for 5 mins followed by substrate addition and measured after 1.5 min in the presence of NADH by absorbance based plate reader analysis; conditions: time 6.5 min
Calls of active or inactive are those of the source. The rule behind the calls is not given here.
REPORTED_PROPERTY: inhibition

Record excerpt, results attached:
- CHEMICAL_STRUCTURE: "Cn1c(C(=O)NCc2ccc(O)c([N+](=O)[O-])c2)c(Br)c2ccccc21"
  inhibition: "Active"
- CHEMICAL_STRUCTURE: "O=C(COC(=O)c1cc(-c2ccoc2)n[nH]1)Nc1ccc(Br)cc1"
  inhibition: "Active"
- CHEMICAL_STRUCTURE: "Cn1c(=O)[nH]c2ncc(-c3cccc(C(=O)Nc4cccc(C#N)c4)c3)cc21"
  inhibition: "inactive"
- CHEMICAL_STRUCTURE: "C=C(Cl)COC(=O)c1cnc2[nH]ccc2c1"
  inhibition: "Active"

// next entry
Record summary for C#Cc1cccc(NC(=O)c2cccc(-c3cnc4[nH]c(=O)n(C)c4c3)c2)c1 : reported inhibition = inactive

====

target: Histone-lysine N-methyltransferase EHMT2 (Homo sapiens)
Sequence (Q96KQ7 whole entry): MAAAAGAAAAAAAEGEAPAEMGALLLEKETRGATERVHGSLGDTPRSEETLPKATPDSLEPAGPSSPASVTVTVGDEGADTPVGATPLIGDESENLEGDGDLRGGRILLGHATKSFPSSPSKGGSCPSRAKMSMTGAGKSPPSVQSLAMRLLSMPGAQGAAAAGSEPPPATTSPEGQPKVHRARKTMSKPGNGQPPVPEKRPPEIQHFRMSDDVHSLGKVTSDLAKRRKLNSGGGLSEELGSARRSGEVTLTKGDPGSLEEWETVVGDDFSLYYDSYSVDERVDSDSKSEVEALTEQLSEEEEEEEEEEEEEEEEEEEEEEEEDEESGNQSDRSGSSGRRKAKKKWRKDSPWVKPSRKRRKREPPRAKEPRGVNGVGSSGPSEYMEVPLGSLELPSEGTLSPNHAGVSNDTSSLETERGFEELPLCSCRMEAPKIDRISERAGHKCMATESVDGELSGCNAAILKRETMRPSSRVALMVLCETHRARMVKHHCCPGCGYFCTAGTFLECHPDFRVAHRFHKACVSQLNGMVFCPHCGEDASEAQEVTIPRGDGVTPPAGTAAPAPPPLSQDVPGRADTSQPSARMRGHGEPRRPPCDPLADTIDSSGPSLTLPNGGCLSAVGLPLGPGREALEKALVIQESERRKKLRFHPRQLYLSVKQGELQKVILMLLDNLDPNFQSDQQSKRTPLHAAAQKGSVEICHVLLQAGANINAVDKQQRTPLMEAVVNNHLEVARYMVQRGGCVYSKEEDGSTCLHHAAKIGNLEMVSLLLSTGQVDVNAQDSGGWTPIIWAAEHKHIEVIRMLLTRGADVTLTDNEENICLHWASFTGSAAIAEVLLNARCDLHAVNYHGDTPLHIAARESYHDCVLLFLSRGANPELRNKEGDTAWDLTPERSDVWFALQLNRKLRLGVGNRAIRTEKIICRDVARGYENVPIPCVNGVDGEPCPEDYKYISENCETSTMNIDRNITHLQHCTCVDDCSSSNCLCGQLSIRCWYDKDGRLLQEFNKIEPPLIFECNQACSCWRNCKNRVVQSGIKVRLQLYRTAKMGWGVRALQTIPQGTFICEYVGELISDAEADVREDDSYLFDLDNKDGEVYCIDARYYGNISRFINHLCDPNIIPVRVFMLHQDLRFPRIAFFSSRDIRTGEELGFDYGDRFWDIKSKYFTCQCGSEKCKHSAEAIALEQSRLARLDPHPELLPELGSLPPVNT
REPORTED_PROPERTY: pIC50
// pIC50 here means minus log10 of the molar concentration (mol/L)

Measured pIC50, N#Cc1ccc(NC(=O)c2cc(C=O)n3c2CCCC3)c2cc(O)ccc12 : 4.52

====

biological target: Histone-lysine N-methyltransferase SMYD3 (Homo sapiens, UniProt Q9H7B4)
Sequence (Q9H7B4 whole entry): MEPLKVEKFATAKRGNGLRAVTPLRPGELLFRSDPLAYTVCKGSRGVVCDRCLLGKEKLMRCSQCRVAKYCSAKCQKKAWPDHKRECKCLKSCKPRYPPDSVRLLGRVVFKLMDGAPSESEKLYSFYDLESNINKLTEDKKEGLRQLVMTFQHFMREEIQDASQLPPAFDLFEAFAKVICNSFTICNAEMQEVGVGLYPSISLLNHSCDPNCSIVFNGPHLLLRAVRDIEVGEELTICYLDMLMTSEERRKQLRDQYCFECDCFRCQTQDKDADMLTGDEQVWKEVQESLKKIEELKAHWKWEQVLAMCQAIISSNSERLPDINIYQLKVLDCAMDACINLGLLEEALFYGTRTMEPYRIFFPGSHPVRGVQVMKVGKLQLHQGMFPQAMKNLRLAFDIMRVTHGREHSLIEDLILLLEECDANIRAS
REPORTED_PROPERTY: IC50 (µM)
Write the number in µM without appending the unit.

GET /values?item= O=C(COC(=O)c1cc(-c2ccoc2)n[nH]1)Nc1ccc(Br)cc1 &system= Histone-lysine N-methyltransferase SMYD3 (Homo sapiens, UniProt Q9H7B4) returns IC50: 8

====

target: Replicase polyprotein 1ab (Severe acute respiratory syndrome coronavirus 2, UniProt P0DTD1)
Documented IC50 across a set of molecules
Hi! Could you send only the number? It should be in µM, unit omitted.

Worked cases, answers included:
- MOLECULE: "C=CC(=O)NCCC(=O)N1CCC(C2C(=O)Nc3cc(Cl)ccc32)CC1 (centres undefined)"
  IC50, µM: 32
- MOLECULE: "Cn1c(=O)[nH]c2ncc(-c3cccc(C(=O)Nc4ccc(Cl)c(CO)c4)c3)cc21"
  IC50, µM: 15
- MOLECULE: "O=Cc1cc(F)c(C(=O)Nc2cc(Cl)c3c(c2)OCCO3)cc1F"
  IC50, µM: 25

Looking up O=C(OCc1cn2cc(Br)ccc2n1)c1cc(-c2ccco2)[nH]n1 , I found its IC50 recorded as 6

====

molecular target: Replicase polyprotein 1ab (Severe acute respiratory syndrome coronavirus 2, UniProt P0DTD1)
REPORTED_PROPERTY: IC50 (µM)
API: value field is a number in µM; no unit string.

For Cc1c(C(=O)/C=C/c2ccc(O)c([N+](=O)[O-])c2)c(C#N)c2n1CCC2 the compound record lists IC50 as 50

// sample C=C(Cl)COC(=O)c1cnc2[nH]ccc2c1 , its IC50 was 31

The compound identified as Cn1ncc(N)c1-c1cc2ccccc2[nH]1 registered its IC50 at 341

// field: IC50; key: CN(C)c1cncc(NC(=O)c2ccc(C=O)cc2O)c1 ; value = 12

Data point: O=C(COC(=O)c1cc(-c2ccoc2)n[nH]1)Nc1ccc(Br)cc1 ; IC50 = 2.2

Looking up Cn1c(=O)[nH]c2ncc(-c3cccc(C(=O)Nc4cccc(C#N)c4)c3)cc21 , I found its IC50 recorded as 20

====

Reported pIC50 values, UniProt Q9H9B1.
Sequence (Q9H9B1 whole entry): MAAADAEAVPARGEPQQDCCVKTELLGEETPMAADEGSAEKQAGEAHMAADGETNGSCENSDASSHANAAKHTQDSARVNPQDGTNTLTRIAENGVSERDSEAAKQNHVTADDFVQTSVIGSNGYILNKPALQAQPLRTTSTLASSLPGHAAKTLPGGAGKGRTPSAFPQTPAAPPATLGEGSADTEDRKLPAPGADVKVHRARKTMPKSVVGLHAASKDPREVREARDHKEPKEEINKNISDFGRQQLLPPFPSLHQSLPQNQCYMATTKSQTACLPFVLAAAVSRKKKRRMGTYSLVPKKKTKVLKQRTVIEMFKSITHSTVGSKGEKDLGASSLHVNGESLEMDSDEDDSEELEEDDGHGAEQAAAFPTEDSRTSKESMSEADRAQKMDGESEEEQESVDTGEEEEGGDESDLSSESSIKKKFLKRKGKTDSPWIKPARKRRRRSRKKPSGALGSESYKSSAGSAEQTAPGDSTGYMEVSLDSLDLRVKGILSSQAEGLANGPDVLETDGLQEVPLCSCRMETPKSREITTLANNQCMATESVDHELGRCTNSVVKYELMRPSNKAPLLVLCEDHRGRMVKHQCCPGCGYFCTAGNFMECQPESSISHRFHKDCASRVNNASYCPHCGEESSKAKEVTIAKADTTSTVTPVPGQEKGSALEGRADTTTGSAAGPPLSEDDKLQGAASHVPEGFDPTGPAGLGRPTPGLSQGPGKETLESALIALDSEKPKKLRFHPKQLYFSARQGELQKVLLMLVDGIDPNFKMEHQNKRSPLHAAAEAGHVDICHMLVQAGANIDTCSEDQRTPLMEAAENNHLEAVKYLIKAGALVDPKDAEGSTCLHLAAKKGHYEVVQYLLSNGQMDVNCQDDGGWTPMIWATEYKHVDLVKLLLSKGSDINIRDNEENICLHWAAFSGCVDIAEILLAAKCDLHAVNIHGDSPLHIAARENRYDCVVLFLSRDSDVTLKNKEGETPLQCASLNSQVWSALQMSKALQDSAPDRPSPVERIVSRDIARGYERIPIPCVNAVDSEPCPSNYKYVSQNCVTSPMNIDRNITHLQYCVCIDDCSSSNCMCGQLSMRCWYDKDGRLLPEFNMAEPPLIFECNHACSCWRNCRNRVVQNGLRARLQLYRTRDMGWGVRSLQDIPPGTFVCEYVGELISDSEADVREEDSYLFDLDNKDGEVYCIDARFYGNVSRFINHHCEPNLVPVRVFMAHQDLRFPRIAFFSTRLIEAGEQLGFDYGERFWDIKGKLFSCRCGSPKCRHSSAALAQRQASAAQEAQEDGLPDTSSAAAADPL
pIC50 here is simply -log10 of the concentration when that concentration is written in mol/L.

- CHEMICAL_STRUCTURE: "O=C(COC(=O)c1cc(-c2ccoc2)n[nH]1)Nc1ccc(Br)cc1"
  pIC50: 4.59

Moving on to the next molecule.
// molecule N#Cc1ccc(NC(=O)c2cc(C=O)n3c2CCCC3)c2cc(O)ccc12 , assay UniProt Q9H9B1, pIC50 value: 4.85

====

assay: Aggregation property of the compound in KPi buffer at pH 7.0 assessed as formation of colloid-like particles by dynamic light scattering analysis; format: physicochemical
REPORTED_PROPERTY: Activity

- CHEMICAL_STRUCTURE: "Cn1ncc(N)c1-c1cc2ccccc2[nH]1"
  Activity: "Active"
- CHEMICAL_STRUCTURE: "Cc1nc2ncc(-c3c[nH]nn3)cc2[nH]1"
  Activity: "Active"
- CHEMICAL_STRUCTURE: "CN(Cc1ccncc1)c1cc(Br)ncn1"
  Activity: "Active"
- CHEMICAL_STRUCTURE: "Cn1c(C(=O)NCc2ccc(O)c([N+](=O)[O-])c2)c(Br)c2ccccc21"
  Activity: "Active"
- CHEMICAL_STRUCTURE: "O=C(COC(=O)c1cc(-c2ccoc2)n[nH]1)Nc1ccc(Br)cc1"
  Activity: "Active"
- CHEMICAL_STRUCTURE: "CC(C)SCn1cnc2cnn(C)c2c1=O"
  Activity: "Active"
- CHEMICAL_STRUCTURE: "N#Cc1c(C(=O)NCc2ccc(O)c([N+](=O)[O-])c2)[nH]c2ccccc12"
  Activity: "Active"
- CHEMICAL_STRUCTURE: "O=C(NC1CSC1)c1ncnn2cccc12"
  Activity: "Active"

Now, please, on to the next compound.
Memo: Cc1c(C(=O)/C=C/c2cc(Br)c(O)cc2F)c(C#N)c2n1CCC2 , reported Activity: Active

====

target: Replicase polyprotein 1ab (Severe acute respiratory syndrome coronavirus 2, UniProt P0DTD1)
REPORTED_PROPERTY: pIC50
# log scale: pIC50 equals minus log10 of the concentration in mol/L

Sample records with pIC50:
- MOLECULE: "Cc1nc2ncc(-c3c[nH]nn3)cc2[nH]1"
  MEASURED_VALUE: 3.90
- MOLECULE: "C=CC(=O)N(C)c1ccc(C(=O)Nc2ccc(-c3cn4ccsc4n3)cc2)cc1"
  MEASURED_VALUE: 4.41
- MOLECULE: "Cc1cc(C(=O)Nc2cccc(N3CCNC3=O)c2C)sc1C=O"
  MEASURED_VALUE: 5.46

What the record says about N#Cc1ccc(NC(=O)c2cc(C=O)n3c2CCCC3)c2cc(O)ccc12 : pIC50 is 5.10

Value of measured pIC50 for the entry COc1cc(F)cc(NC(=O)c2cccc(-c3cnc4[nH]c(=O)n(C)c4c3)c2)c1 : 4.85

Recorded result, N#Cc1cncc(NCc2cc(Br)c[nH]2)n1 , pIC50: 4.22

====

target: Histone-lysine N-methyltransferase, H3 lysine-79 specific (Homo sapiens, UniProt Q8TEK3)
Sequence (Q8TEK3 whole entry): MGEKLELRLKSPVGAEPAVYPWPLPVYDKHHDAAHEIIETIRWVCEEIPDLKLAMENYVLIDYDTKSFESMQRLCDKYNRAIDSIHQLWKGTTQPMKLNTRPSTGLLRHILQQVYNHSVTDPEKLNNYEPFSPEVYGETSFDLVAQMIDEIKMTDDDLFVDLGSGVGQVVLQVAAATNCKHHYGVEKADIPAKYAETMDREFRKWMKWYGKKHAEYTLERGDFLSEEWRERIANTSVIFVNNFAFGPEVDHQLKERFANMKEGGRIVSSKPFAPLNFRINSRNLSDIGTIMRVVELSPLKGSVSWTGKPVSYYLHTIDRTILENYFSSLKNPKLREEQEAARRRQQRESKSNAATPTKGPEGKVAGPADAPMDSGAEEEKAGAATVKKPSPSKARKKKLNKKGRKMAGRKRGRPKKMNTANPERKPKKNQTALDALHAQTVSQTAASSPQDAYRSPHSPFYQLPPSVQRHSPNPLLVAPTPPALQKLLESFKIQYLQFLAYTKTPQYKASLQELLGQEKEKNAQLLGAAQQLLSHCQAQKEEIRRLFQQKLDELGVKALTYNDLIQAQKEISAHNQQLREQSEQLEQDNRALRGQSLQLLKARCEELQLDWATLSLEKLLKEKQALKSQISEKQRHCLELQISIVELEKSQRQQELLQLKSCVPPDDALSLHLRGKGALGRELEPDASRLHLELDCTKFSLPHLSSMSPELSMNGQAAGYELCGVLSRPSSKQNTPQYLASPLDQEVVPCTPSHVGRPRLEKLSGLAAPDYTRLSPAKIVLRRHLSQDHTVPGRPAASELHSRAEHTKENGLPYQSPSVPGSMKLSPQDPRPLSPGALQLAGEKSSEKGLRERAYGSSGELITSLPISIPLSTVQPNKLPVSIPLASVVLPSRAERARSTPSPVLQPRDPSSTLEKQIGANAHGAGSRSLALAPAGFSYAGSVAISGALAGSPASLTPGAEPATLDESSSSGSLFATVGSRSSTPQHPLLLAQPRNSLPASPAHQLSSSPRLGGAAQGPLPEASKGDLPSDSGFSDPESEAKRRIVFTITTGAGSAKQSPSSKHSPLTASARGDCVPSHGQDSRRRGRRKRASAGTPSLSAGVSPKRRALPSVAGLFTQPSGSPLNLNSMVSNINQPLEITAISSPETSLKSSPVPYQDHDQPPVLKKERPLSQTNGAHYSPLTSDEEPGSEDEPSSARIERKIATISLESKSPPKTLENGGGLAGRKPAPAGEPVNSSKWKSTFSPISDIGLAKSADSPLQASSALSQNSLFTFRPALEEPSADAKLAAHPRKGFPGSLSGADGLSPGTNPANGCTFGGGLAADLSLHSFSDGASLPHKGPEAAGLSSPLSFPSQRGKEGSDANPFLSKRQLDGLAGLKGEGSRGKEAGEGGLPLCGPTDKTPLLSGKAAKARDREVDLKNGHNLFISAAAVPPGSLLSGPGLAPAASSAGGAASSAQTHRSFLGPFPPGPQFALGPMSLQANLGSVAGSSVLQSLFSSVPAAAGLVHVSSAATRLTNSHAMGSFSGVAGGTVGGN
REPORTED_PROPERTY: pIC50
Would you please state pIC50, meaning minus log10 of the concentration in mol/L, as a bare number?

get_value(item= O=C(COC(=O)c1cc(-c2ccoc2)n[nH]1)Nc1ccc(Br)cc1 , readout=pIC50) returns 5.15

====

tested on: Bacteria; assay: Inhibition of beta-lactamase AmpC (unknown origin) pre-incubated with compound for 5 mins followed by substrate addition and measured after 1.5 mins by absorbance based plate reader analysis; details: time 6.5 min
Active and inactive are the calls of the source. The calls are words filed in the database; no cut-off is given here.
Select the correct class. Options are y = active, n = inactive and nothing else.

// known answers, use as guide
- CHEMICAL_STRUCTURE: "O=C(COC(=O)c1cc(-c2ccoc2)n[nH]1)Nc1ccc(Br)cc1"
  GROUP_LABEL: "n"
- CHEMICAL_STRUCTURE: "Cc1c(C(=O)/C=C/c2ccc(O)c([N+](=O)[O-])c2)c(C#N)c2n1CCC2"
  GROUP_LABEL: "y"
- CHEMICAL_STRUCTURE: "C#Cc1cccc(NC(=O)c2cccc(-c3cnc4[nH]c(=O)n(C)c4c3)c2)c1"
  GROUP_LABEL: "n"

*Q* Status in this test for Oc1ccccc1-c1ncnc2[nH]ccc12 ?
*A* y

*Q* Record lookup: outcome of this test for N#Cc1c(C(=O)NCc2ccc(O)c([N+](=O)[O-])c2)[nH]c2ccccc12 ?
*A* y

*Q* Record request — test call for Cn1c(C(=O)NCc2ccc(O)c([N+](=O)[O-])c2)c(Br)c2ccccc21
*A* y

*Q* Field: outcome | Entry: Cn1c(=O)[nH]c2ncc(-c3cccc(C(=O)Nc4cccc(C#N)c4)c3)cc21
*A* n

*Q* Hey, what did the test say about CN(C)c1cncc(NC(=O)c2ccc(C=O)cc2O)c1 ?
*A* n

*Q* Dear colleague, could you share the recorded outcome for Cc1c(C(=O)/C=C/c2cc(Br)c(O)cc2F)c(C#N)c2n1CCC2 when you have a moment?
*A* y

====

species: Homo sapiens; assay: Inhibition of MDH (unknown origin) using oxaloacetic acid as substrate preincubated with compound for 5 mins followed by substrate addition and measured after 1.5 min in the presence of NADH by absorbance based plate reader analysis; settings: time 6.5 min
The source made the active and inactive calls. The calls are words filed in the database; no cut-off is given here.
Choose the fitting class; nothing outside class 1 = active, class 0 = inactive is accepted.

Here are 5 compounds together with their reported answers.
- CHEMICAL_STRUCTURE: "Cc1c(C(=O)/C=C/c2cc(Br)c(O)cc2F)c(C#N)c2n1CCC2"
  GROUP_LABEL: "class 1"
- CHEMICAL_STRUCTURE: "CC(C)SCn1cnc2cnn(C)c2c1=O"
  GROUP_LABEL: "class 1"
- CHEMICAL_STRUCTURE: "CN(C)c1cncc(NC(=O)c2ccc(C=O)cc2O)c1"
  GROUP_LABEL: "class 0"
- CHEMICAL_STRUCTURE: "N#Cc1c(C(=O)NCc2ccc(O)c([N+](=O)[O-])c2)[nH]c2ccccc12"
  GROUP_LABEL: "class 1"
- CHEMICAL_STRUCTURE: "Oc1ccccc1-c1ncnc2[nH]ccc12"
  GROUP_LABEL: "class 1"

Now for a further compound.
*Q* Name the outcome recorded for Cc1c(C(=O)/C=C/c2ccc(O)c([N+](=O)[O-])c2)c(C#N)c2n1CCC2 in the assay.
*A* class 1
